Data provenance is ChEMBL document CHEMBL3832761.

Test system: Cryptosporidium parvum
Assay: AntiCryptosporidium parvum activity Compounds added at t0, IC 50 (uM)
Format: functional, organism-based

smiles repr	subject of test	units text	IC50
CCOc1ccc2cc(-c3nn(C(C)(C)C)c(N)c3C(N)=O)cnc2c1	Cryptosporidium parvum	nM	50
CCOc1ccc2cc(-c3nn(CC4CCN(C)CC4)c4ncnc(N)c34)ccc2c1	Cryptosporidium parvum	nM	50
CS(=O)(=O)N1CCC(Cn2nc(Cc3cccc4ccccc34)c3c(N)ncnc32)CC1	Cryptosporidium parvum	nM	100
CC(C)(C)n1nc(Cc2cccc3ccccc23)c2c(N)ncnc21	Cryptosporidium parvum	nM	100
COc1ccc(OC)c(NCc2ccc3nc(N)nc(N)c3c2Cl)c1	Cryptosporidium parvum	nM	100
